Quick reference: pKi of the listed items.
protocol_notes: DRUGMATRIX: Imidazoline I2, Central radioligand binding (ligand: [3H] Idazoxan)
Type: cell membranes, Rattus norvegicus, Wistar, Cerebral cortex, Membrane
stated_conditions: Not Active = under 50% inhibition at 10 µM; read-out: Ki
Recall that pKi is obtained by taking minus log10 of the concentration measured in molar.

Here are 3 compounds together with their reported answers.
>>> print(df.to_string())
                                   compound  measure  experimental_result
0  CNCCC=C1c2ccccc2CCc2ccccc21 [NORTRIPTYLINE]      pKi                 5.59
1  COC(=O)[C@@H]1[C@H]2C[C@H]3c4[nH]c5ccccc5c4CCN3C[C@@H]2CC[C@@H]1O [YOHIMBINE]      pKi                 6.98
2  COc1ccc(CN(CCN(C)C)c2ccccn2)cc1 [PYRILAMINE]      pKi                 5.65

GET /value?item= CN1C[C@H](C(=O)N[C@]2(C)O[C@@]3(O)[C@@H]4CCCN4C(=O)[C@H](Cc4ccccc4)N3C2=O)C=C2c3cccc4[nH]cc(c34)C[C@H]21 [ERGOTAMINE] &field=pKi returns 8.61

* * *

assayed_system: 5-hydroxytryptamine receptor 4 (Cavia porcellus); note: in other assays of this panel Not Active means under 50% inhibition at 10 µM
Sequence (O70528 whole entry): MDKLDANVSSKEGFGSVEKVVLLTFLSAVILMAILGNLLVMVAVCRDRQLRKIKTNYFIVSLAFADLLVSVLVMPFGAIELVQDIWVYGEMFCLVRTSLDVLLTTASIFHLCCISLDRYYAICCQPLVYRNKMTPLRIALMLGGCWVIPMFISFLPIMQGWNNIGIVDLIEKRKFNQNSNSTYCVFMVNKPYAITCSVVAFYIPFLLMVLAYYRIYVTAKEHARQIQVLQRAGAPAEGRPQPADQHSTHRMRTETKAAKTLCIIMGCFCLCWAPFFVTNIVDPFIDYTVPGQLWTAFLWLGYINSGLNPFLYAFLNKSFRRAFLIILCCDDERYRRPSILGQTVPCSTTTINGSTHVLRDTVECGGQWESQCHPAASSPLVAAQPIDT
Assay type: cell membranes, Dunkin-Hartley, Striatum, Membrane
measure: IC50

Here are 4 molecules together with their reported answers.
>>> print(df.to_string())
                                   molecule                            assayed_system  measure  experimental_result
0  COc1ccc(CCN2CCC(Nc3nc4ccccc4n3Cc3ccc(F)cc3)CC2)cc1 [ASTEMIZOLE]  5-hydroxytryptamine receptor 4 (Cavia porcellus)     IC50           Not Active
1          c1ccc2c(c1)cc1ccc3cccc4ccc2c1c34  5-hydroxytryptamine receptor 4 (Cavia porcellus)     IC50           Not Active
2  COC1=CC(=O)C[C@@H](C)[C@]12Oc1c(Cl)c(OC)cc(OC)c1C2=O [GRISEOFULVIN]  5-hydroxytryptamine receptor 4 (Cavia porcellus)     IC50           Not Active
3  CCOC(=O)[C@H](CCc1ccccc1)N[C@@H](C)C(=O)N1[C@H](C(=O)O)C[C@@H]2CCC[C@@H]21  5-hydroxytryptamine receptor 4 (Cavia porcellus)     IC50           Not Active

Next, consider the following molecule.
GET /value?item= O=C1CCc2cc(OCCCCc3nnnn3C3CCCCC3)ccc2N1 [CILOSTAZOL] &field=IC50 returns Not Active

* * *

protocol_notes: DRUGMATRIX: GABAA, Flunitrazepam, Central radioligand binding (ligand: [3H] Flunitrazepam)
Type: cell membranes, Rattus norvegicus, Wistar, Brain, Membrane
stated_conditions: Not Active = under 50% inhibition at 10 µM

molecule	Ki
CCCC[C@@H](CC)COC(=O)c1ccccc1C(=O)OC[C@@H](CC)CCCC [BIS(2-ETHYLHEXYL)PHTHALATE]	Not Active
C=CC[C@@H]1/C=C(\C)C[C@H](C)C[C@H](OC)[C@H]2O[C@@](O)(C(=O)C(=O)N3CCCC[C@H]3C(=O)O[C@H](/C(C)=C/[C@@H]3CC[C@@H](O)[C@H](OC)C3)[C@H](C)[C@@H](O)CC1=O)[C@H](C)C[C@@H]2OC [TACROLIMUS ANHYDROUS]	Not Active
Nc1ccc(S(N)(=O)=O)cc1 [SULFANILAMIDE]	Not Active

* * *

assayed_system: UniProt P25105
Sequence (P25105 whole entry): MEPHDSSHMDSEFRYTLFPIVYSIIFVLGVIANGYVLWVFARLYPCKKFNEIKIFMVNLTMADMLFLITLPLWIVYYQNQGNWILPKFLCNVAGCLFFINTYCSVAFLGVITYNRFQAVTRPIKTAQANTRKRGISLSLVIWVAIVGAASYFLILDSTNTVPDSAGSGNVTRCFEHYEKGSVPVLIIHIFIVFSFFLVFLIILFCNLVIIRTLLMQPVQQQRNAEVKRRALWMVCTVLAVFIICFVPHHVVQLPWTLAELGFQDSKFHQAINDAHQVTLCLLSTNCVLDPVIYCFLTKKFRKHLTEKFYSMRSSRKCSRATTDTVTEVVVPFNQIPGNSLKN
protocol_notes: biochemical
Assay type: tissue-based
stated_conditions: read-out: IC50
measure: pIC50
Recall that pIC50 is obtained by taking minus log10 of the concentration measured in molar.

GET /value?item= `Clc1ccccc1C(c1ccccc1)(c1ccccc1)n1ccnc1` &field=pIC50 returns 4.46

* * *

protocol_notes: DRUGMATRIX: Leukotriene, BLT (LTB4) radioligand binding (ligand: [3H]LTB4)
Format: cell membranes, Membrane
stated_conditions: u-937; Not Active = under 50% inhibition at 10 µM
measure: IC50

compound	IC50
Nc1ccc(S(N)(=O)=O)cc1 [SULFANILAMIDE]	Not Active
C=C1CC[C@H](O)C/C1=C/C=C1\CCC[C@]2(C)[C@@H]([C@H](C)/C=C/[C@H](C)C(C)C)CC[C@@H]12	Not Active
O=C1OC2(c3ccc(O)cc3Oc3cc(O)ccc32)c2ccccc21	Not Active
CC=CC(=O)N(CC)c1ccccc1C	Not Active
COc1c(N2CCNC(C)C2)c(F)cc2c(=O)c(C(=O)O)cn(C3CC3)c12 (centres undefined)	Not Active

GET /value?item= `Cc1[nH]cnc1CN1CCc2c(c3ccccc3n2C)C1=O` &field=IC50 returns Not Active

GET /value?item= `CC[C@@]1(O)C(=O)OCc2c1cc1n(c2=O)Cc2cc3ccccc3nc2-1` &field=IC50 returns Not Active

* * *

protocol_notes: DRUGMATRIX: Glutamate, NMDA, Agonism radioligand binding (ligand: [3H] CGP-39653)
Assay type: cell membranes, Rattus norvegicus, Wistar, Cerebral cortex, Membrane
stated_conditions: Not Active = under 50% inhibition at 10 µM
measure: Ki

compound	Ki
CN[C@@H]1[C@@H](O)[C@@H](O[C@@H]2[C@@H](O)[C@H](O[C@H]3OC(CN)=CC[C@H]3N)[C@@H](N)C[C@H]2N)OC[C@]1(C)O [SISOMICIN]	Not Active
CN(C)CCCC1(c2ccc(F)cc2)OCc2cc(C#N)ccc21 (stereo unspecified) [CITALOPRAM]	Not Active
Cc1ncc([N+](=O)[O-])n1CC(C)O (stereo unspecified) [SECNIDAZOLE]	Not Active
COC(=O)c1ccc(O)cc1 [METHYLPARABEN]	Not Active
CC(=O)OCC(=O)[C@@]1(OC(C)=O)[C@@H](C)C[C@H]2[C@@H]3C[C@H](F)C4=CC(=O)C=C[C@]4(C)[C@@]3(F)[C@@H](O)C[C@@]21C [DIFLORASONE DIACETATE]	Not Active
CCCSc1ccc2nc(NC(=O)OC)[nH]c2c1 [ALBENDAZOLE]	Not Active
C=CC[C@@H]1/C=C(\C)C[C@H](C)C[C@H](OC)[C@H]2O[C@@](O)(C(=O)C(=O)N3CCCC[C@H]3C(=O)O[C@H](/C(C)=C/[C@@H]3CC[C@@H](O)[C@H](OC)C3)[C@H](C)[C@@H](O)CC1=O)[C@H](C)C[C@@H]2OC [TACROLIMUS ANHYDROUS]	Not Active
C[C@](N)(Cc1ccc(O)cc1)C(=O)O [METYROSINE]	Not Active
COc1ccc([C@@H]2Sc3ccccc3N(CCN(C)C)C(=O)[C@@H]2OC(C)=O)cc1 [DILTIAZEM]	Not Active
Cc1cc(NS(=O)(=O)c2ccc(N)cc2)no1 [SULFAMETHOXAZOLE]	Not Active

GET /value?item= COCc1c(C(C)C)nc(C(C)C)c(/C=C/[C@@H](O)C[C@@H](O)CC(=O)O)c1-c1ccc(F)cc1 [CERIVASTATIN] &field=Ki returns Not Active

GET /value?item= CCCC[C@@H](CC)COC(=O)c1ccccc1C(=O)OC[C@@H](CC)CCCC [BIS(2-ETHYLHEXYL)PHTHALATE] &field=Ki returns Not Active

* * *

assayed_system: Sigma non-opioid intracellular receptor 1 (Homo sapiens, UniProt Q99720)
Sequence (Q99720 whole entry): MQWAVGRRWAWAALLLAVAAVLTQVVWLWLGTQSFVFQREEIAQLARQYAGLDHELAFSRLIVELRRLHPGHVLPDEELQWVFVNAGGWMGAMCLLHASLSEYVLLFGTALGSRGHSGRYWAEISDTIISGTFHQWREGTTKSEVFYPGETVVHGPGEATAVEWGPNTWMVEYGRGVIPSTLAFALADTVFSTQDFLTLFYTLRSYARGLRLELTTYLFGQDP
protocol_notes: DRUGMATRIX: Sigma1 radioligand binding (ligand: [3H] Haloperidol)
Type: cell membranes, Jurkat, Membrane
stated_conditions: Not Active = under 50% inhibition at 10 µM; read-out: IC50
measure: IC50 (nM)
Write the answer as a number in nM, unit excluded.

Here are 4 compounds together with their reported answers.
                                   compound                            assayed_system  measure  result_unit  experimental_result
0  CCc1ccc(C(=O)C(C)CN2CCCCC2)cc1 (stereo not drawn) [EPERISONE]  Sigma non-opioid intracellular receptor 1 (Homo sapiens, UniProt Q99720)     IC50           nM                 4.05
1  CC(CCc1ccccc1)NCC(O)c1ccc(O)c(C(N)=O)c1 (stereo not drawn) [LABETALOL]  Sigma non-opioid intracellular receptor 1 (Homo sapiens, UniProt Q99720)     IC50           nM                 1810
2  CSc1ccc2c(c1)N(CCC1CCCCN1C)c1ccccc1S2 (stereo not drawn) [THIORIDAZINE]  Sigma non-opioid intracellular receptor 1 (Homo sapiens, UniProt Q99720)     IC50           nM                  363
3  Cc1ccc(C(=O)C(C)CN2CCCCC2)cc1 (stereo not drawn) [TOLPERISONE]  Sigma non-opioid intracellular receptor 1 (Homo sapiens, UniProt Q99720)     IC50           nM                   13

// IC50 (Sigma non-opioid intracellular receptor 1 (Homo sapiens, UniProt Q99720)) for Fc1ccc([C@@H]2CCNC[C@H]2COc2ccc3c(c2)OCO3)cc1 [PAROXETINE] = 5370

All values here come from ChEMBL document CHEMBL1909046.
